- Test system: L1210 leukemia ip in BDF1 mice, survival T/C
- assay_remarks: NCI In Vivo Anticancer Drug Screen. Data for tumor model L1210 Leukemia (intraperitoneal) in B6D2F1 (BDF1) mice
- condition_context: endpoint: mean survival time; dose: 100.0 mg/kg/injection; schedule: Q01DX005 (ip); vehicle: saline; higher = longer survival
Inconclusive results and toxic doses are left out.
measured_property: T/C

{"compound": "CC1(C)OC2COC(c3[nH]nc4c(=O)[nH]c(=O)[nH]c34)C2O1 (centres undefined)", "endpoint_value": "101 % of control"}
{"compound": "CC(=O)OCC1OC(n2cnc3c(=O)[nH]nnc32)C(OC(C)=O)C1OC(C)=O (centres undefined)", "endpoint_value": "96 % of control"}
{"compound": "CN(C)N=Nc1nn(C2CCCO2)cc1C(N)=O (centres undefined)", "endpoint_value": "150 % of control"}

Continue with the compound presented below.
For the compound NCC1OC(OC2C(CO)OC(OC3C(O)C(N)CC(N)C3OC3OC(CO)C(O)CC3N)C2O)C(N)C(O)C1OC1OC(CO)C(O)C(O)C1O (centres undefined) , what T/C is on record?
96 % of control

----------
- Test system: L1210 leukemia ip in BDF1 mice, survival T/C
- assay_remarks: NCI In Vivo Anticancer Drug Screen. Data for tumor model L1210 Leukemia (intraperitoneal) in B6D2F1 (BDF1) mice
- condition_context: endpoint: mean survival time; dose: 200.0 mg/kg/injection; schedule: Q01DX009 (ip); vehicle: carboxymethylcellulose (CMC); higher = longer survival
Inconclusive results and toxic doses are left out.
Items are presented alongside their recorded T/C.

{"compound": "O=C1CC2(C(=O)O)CC3CC2C(O1)C3I (centres undefined)", "T/C": "96 % of control"}

Under L1210 leukemia ip in BDF1 mice, survival T/C: T/C value of COc1ccc(C(=O)NO)cc1 ?
102 % of control

Similarly, Nc1ncnc2c1ncn2C1OC(CO)C(O)C1O (centres undefined) ?
114 % of control

Input O=C1C2C3CCC(O3)C2C(=O)N1N1C(=O)C2C3CCC(O3)C2C1=O (centres undefined)
97 % of control

----------
Listing of entries alongside the reported T/C.
- Test system: L1210 leukemia ip in BDF1 mice, survival T/C
- assay_remarks: NCI In Vivo Anticancer Drug Screen. Data for tumor model L1210 Leukemia (intraperitoneal) in B6D2F1 (BDF1) mice
- condition_context: endpoint: mean survival time; dose: 6.25 mg/kg/injection; schedule: Q01DX009 (ip); vehicle: saline; higher = longer survival
Toxic doses and inconclusive results are not listed.

Solved entries:
{"molecule": "COC(=O)C1=CCCN(C)C1", "T/C": "101 % of control"}
{"molecule": "C1CCc2nnnn2CC1", "T/C": "111 % of control"}
{"molecule": "CNCCCN1c2ccccc2CCc2ccccc21", "T/C": "115 % of control"}
{"molecule": "C1OC1CN1CCN(CC2CO2)CC1 (centres undefined)", "T/C": "121 % of control"}
{"molecule": "COC(=O)[CH](C[N+](=O)[O-])[Hg][Cl] (centres undefined)", "T/C": "94 % of control"}

Quick check: T/C of CN1CCCCC1CCN1c2ccccc2Sc2ccc(Cl)cc21 (centres undefined) ?
97 % of control

Record: NC(=S)NNc1ccccn1
96 % of control

Thanks! And C[CH2][Sn]([CH2]C)([O]S(C)(=O)=O)[O]S(C)(=O)=O ?
116 % of control

Thanks! And COC1C(/C=C/C(C)=O)OC2OC(C)(C)OC21 (centres undefined) ?
105 % of control

----------
- System: L1210 leukemia ip in BDF1 mice, survival T/C
- assay_remarks: NCI In Vivo Anticancer Drug Screen. Data for tumor model L1210 Leukemia (intraperitoneal) in B6D2F1 (BDF1) mice
- condition_context: endpoint: mean survival time; dose: 100.0 mg/kg/injection; schedule: Q01DX001 (ip); vehicle: saline; higher = longer survival
- Procedure: The antitumor activity of compounds was measured in mice bearing transplantable tumors. Survival or tumor size were measured and the results are expressed as the measurement made in the treated group (T) divided by the measurement made in the vehicle treated control group (C). The tumor model used in this assay is L1210 Leukemia (intraperitoneal) in B6D2F1 (BDF1) mice
Toxic doses and inconclusive results are not listed.
Below, each of the compounds is paired with its reported T/C value.

A selection of reference data follows.
{"compound": "NC(c1ccccc1)(c1ccccc1)c1ccccc1", "T/C": "101 % of control"}
{"compound": "CCCCCCCCCCNCCC(=O)O", "T/C": "101 % of control"}
{"compound": "Nc1ncnc2c1ncn2C1OC(CO)C(NC(=O)C(CCCCNC(=O)OCc2ccccc2)NC(=O)OCc2ccccc2)C1O (stereo unspecified)", "T/C": "102 % of control"}
{"compound": "COc1ccc(C(C#N)N(C)C)cc1OC (stereo unspecified)", "T/C": "100 % of control"}

Find the recorded T/C belonging to Cc1ccc([N+](=O)[O-])cc1CN(CCO)CCO and report it.
101 % of control

Also check COc1ccc(N(CCO)CCO)cc1
102 % of control

What do you get for Cc1ccc(Nc2ncnc3nc[nH]c23)cc1CN(CCO)CCO ?
101 % of control

Could you do the same for O=C1NC(=O)C(c2ccc(F)cc2)N1 (stereo unspecified) , please?
100 % of control

What about O=C1C2=C(CCC2)c2ccccc21 ?
103 % of control

Again, but for CN1CCN(CCCN2c3ccccc3Sc3ccc(C(F)(F)F)cc32)CC1
101 % of control

----------
- Tested on: L1210 leukemia ip in BDF1 mice, survival T/C
- assay_remarks: NCI In Vivo Anticancer Drug Screen. Data for tumor model L1210 Leukemia (intraperitoneal) in B6D2F1 (BDF1) mice
- condition_context: endpoint: mean survival time; dose: 50.0 mg/kg/injection; schedule: Q01DX001 (ip); vehicle: carboxymethylcellulose (CMC); higher = longer survival
Inconclusive results and toxic doses are left out.
measured_property: T/C

{"compound": "N#CC(C#N)=C1c2ccccc2C(=O)c2ccccc21", "T/C": "104 % of control"}
{"compound": "CC(O)C1CCN(Cc2ccccc2)CC1 (configuration not stated)", "T/C": "101 % of control"}
{"compound": "O=NN(CCO)C(=O)Nc1c[nH]c(=O)[nH]c1=O", "T/C": "122 % of control"}
{"compound": "Cn1c2c(c(=O)[nH]c1=O)OCN(Cc1ccccc1)C2", "T/C": "91 % of control"}
{"compound": "CC1(C)CC2C(=O)c3ccccc3NC2c2ccccc21 (configuration not stated)", "T/C": "96 % of control"}

Given the compound O=[N+]([O-])c1ccc(N=Nc2ccc(O)cc2)c([N+](=O)[O-])c1 , what is its reported T/C?
100 % of control

Can you handle CC1=C(c2ccccc2)C(c2ccccc2)=CC1=O next?
95 % of control

Follow-up entry: CCCCCC(/C=N\Nc1nnc(N/N=C\C(=C\c2ccccc2)CCCCC)c2ccccc12)=C/c1ccccc1
102 % of control

Next compound: CCC(CC)(CCN(C)C)c1ccccc1
98 % of control

# repeat for Cc1ccc2c(c1)C(c1ccccc1)(c1ccccc1)OC2
101 % of control

Note, next up: C=CC/C=C/CCC
88 % of control

Subsequent entry: Nc1nc2c(c(=O)[nH]1)CN(C(CCc1ccc(N(CCCl)CCCl)cc1)C(=O)O)CN2 (configuration not stated)
113 % of control

----------
- Tested on: L1210 leukemia ip in BDF1 mice, survival T/C
- assay_remarks: NCI In Vivo Anticancer Drug Screen. Data for tumor model L1210 Leukemia (intraperitoneal) in B6D2F1 (BDF1) mice
- condition_context: endpoint: mean survival time; dose: 200.0 mg/kg/injection; schedule: Q04DX003 (ip); vehicle: carboxymethylcellulose (CMC); higher = longer survival
Toxic doses and inconclusive results are not listed.
measured_property: T/C

{"compound": "O=C1CC2(C(=O)O)CC3CC2C(O1)C3I (centres undefined)", "test_target": "L1210 leukemia ip in BDF1 mice, survival T/C", "endpoint_value": "97 % of control"}
{"compound": "CCN(CCNC(=O)Nc1ccc(OC)cc1)c1ccccc1", "test_target": "L1210 leukemia ip in BDF1 mice, survival T/C", "endpoint_value": "100 % of control"}
{"compound": "CCCCCCC(=O)N(C(C)C)C(C)C", "test_target": "L1210 leukemia ip in BDF1 mice, survival T/C", "endpoint_value": "102 % of control"}

Which T/C is reported for this compound? O=C(Nc1ccc([N+](=O)[O-])cc1Cl)Oc1ccc(Cl)cc1Cl
94 % of control

----------
Parameter T/C: see the listing below.
- System: L1210 leukemia ip in BDF1 mice, survival T/C
- assay_remarks: NCI In Vivo Anticancer Drug Screen. Data for tumor model L1210 Leukemia (intraperitoneal) in B6D2F1 (BDF1) mice
- condition_context: endpoint: mean survival time; dose: 200.0 mg/kg/injection; schedule: Q01DX001 (ip); vehicle: Klucel (hydroxypropylcellulose) (HPC); higher = longer survival
Inconclusive results and toxic doses are left out.

Solved cases below.
{"compound": "O=C(N/N=C\\c1ccc(O)cc1)N/N=C/c1ccc(O)cc1", "test_target": "L1210 leukemia ip in BDF1 mice, survival T/C", "T/C": "95 % of control"}
{"compound": "[N-]=[N+]=C1c2ccccc2-c2ccccc21", "test_target": "L1210 leukemia ip in BDF1 mice, survival T/C", "T/C": "93 % of control"}
{"compound": "COc1cc(OC)c(NC2=CC(c3ccc(Cl)cc3)OC2=O)cc1Cl (stereo unspecified)", "test_target": "L1210 leukemia ip in BDF1 mice, survival T/C", "T/C": "94 % of control"}
{"compound": "O=C(Nc1scc2c1sc1ccccc12)c1ccccc1", "test_target": "L1210 leukemia ip in BDF1 mice, survival T/C", "T/C": "93 % of control"}
{"compound": "O=CNc1ccc2c3c(cccc13)CC2", "test_target": "L1210 leukemia ip in BDF1 mice, survival T/C", "T/C": "93 % of control"}

Note: attention shifts to another entry.
Can you look up the measured T/C of Cc1ccc(-n2c(O)c(N=Nc3ccc(Br)cc3)c(=O)n(-c3ccccc3)c2=S)cc1 for me?
94 % of control

// provenance: PubChem BioAssay AID248
